test system: HBV mutant rtM204I; assay: intracellular HBV DNA replication assay, rtM204I; format: cell-based; conditions: Hepatitis B virus
pEC50: −log10 of the molar value.
measured-attribute: pEC50

• C=C1[C@@H](n2cnc3c(N)ncnc32)[C@@H](F)[C@H](O)[C@H]1CO = 6.00

meta.source: patent US11082386B2
